Each entry below carries its recorded inhibition.
# TARGET_OR_TEST_SYSTEM: Neutrophil cytosol factor 1 (Homo sapiens) (UniProt P14598)
# Sequence (P14598 whole entry, looked up): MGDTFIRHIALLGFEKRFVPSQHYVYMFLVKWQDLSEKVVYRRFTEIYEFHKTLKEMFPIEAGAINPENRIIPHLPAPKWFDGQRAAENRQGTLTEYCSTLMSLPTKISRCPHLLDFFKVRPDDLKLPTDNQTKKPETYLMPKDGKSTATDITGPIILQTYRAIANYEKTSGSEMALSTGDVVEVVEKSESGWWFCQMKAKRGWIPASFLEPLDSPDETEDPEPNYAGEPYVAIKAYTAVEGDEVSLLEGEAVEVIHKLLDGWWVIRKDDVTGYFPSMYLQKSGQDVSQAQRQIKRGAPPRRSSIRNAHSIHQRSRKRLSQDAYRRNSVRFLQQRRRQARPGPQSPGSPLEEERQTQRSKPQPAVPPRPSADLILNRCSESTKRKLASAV
# EXPERIMENT_SUMMARY: blockers of p47phox binding to p22phox – biochemical, uHTS, NADPH oxidase regulatory subunit, primary screen (AID 1274);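 note: 0% = p47phox with labelled peptide and 100% = labelled peptide alone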
# SETTINGS: p47phox/p22phox peptide binding, fluorescence polarization, 2 h; at 24.7 µM; hits give high values
Out of some 220,000 compounds screened, about 1,100 (0.5%) were called active. The sample as a whole holds a higher share of actives than the screen did.
A number alone suffices; assume %.

>  <MOLECULE>
Cc1nn(Cc2ccccc2)c(C)c1C(=O)NCCN1C(=O)S/C(=C\c2ccc(F)cc2)C1=O

>  <ASSAY_METRIC>
inhibition

>  <RESULT_UNITS>
%

>  <REPORTED_RESULT>
19.6

$$$$
>  <MOLECULE>
Cn1c(=O)c([N+](=O)[O-])c(Oc2ccccc2)c2ccccc21

>  <ASSAY_METRIC>
inhibition

>  <RESULT_UNITS>
%

>  <REPORTED_RESULT>
0.11

$$$$
>  <MOLECULE>
CC(C)CNC(=O)COC(=O)c1ccccc1OCC(=O)Nc1ccc(Br)cc1

>  <ASSAY_METRIC>
inhibition

>  <RESULT_UNITS>
%

>  <REPORTED_RESULT>
0.42

$$$$
>  <MOLECULE>
CC1=NN(C(=O)c2ccccc2Br)C(O)(c2cccnc2)C1 (configuration not stated)

>  <ASSAY_METRIC>
inhibition

>  <RESULT_UNITS>
%

>  <REPORTED_RESULT>
1.24

$$$$
>  <MOLECULE>
COc1ccc(CNC(=O)CCC(=O)Nc2nnc(C(C)C)s2)cc1

>  <ASSAY_METRIC>
inhibition

>  <RESULT_UNITS>
%

>  <REPORTED_RESULT>
-6.23

$$$$
>  <MOLECULE>
COc1ccccc1CC(=O)Nc1ccc(F)cc1F

>  <ASSAY_METRIC>
inhibition

>  <RESULT_UNITS>
%

>  <REPORTED_RESULT>
6.55

$$$$
>  <MOLECULE>
CCOC(=O)CC1C(=O)NCCN1c1nc2c(C)cccn2c(=O)c1/C=C1\SC(=S)N(C(C)CC)C1=O (configuration not stated)

>  <ASSAY_METRIC>
inhibition

>  <RESULT_UNITS>
%

>  <REPORTED_RESULT>
-73.3

$$$$
>  <MOLECULE>
CC(Oc1ccc(-c2ccccc2)c(F)c1)c1ccn(S(=O)(=O)c2cccc3ccccc23)n1 (configuration not stated)

>  <ASSAY_METRIC>
inhibition

>  <RESULT_UNITS>
%

>  <REPORTED_RESULT>
30.5

$$$$

Switching to the query record.
Query: May I ask what inhibition has been recorded for CC(C)(C)C(=O)OCc1nc(-c2ccc(O)c(O)c2)cs1 ?
Reply: -9.67

###

# TARGET_OR_TEST_SYSTEM: Neutrophil cytosol factor 1 (Homo sapiens)
# EXPERIMENT_SUMMARY: blockers of p47phox binding to p22phox – biochemical, uHTS, NADPH oxidase regulatory subunit, primary screen (AID 1274);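 note: 0% = p47phox with labelled peptide and 100% = labelled peptide alone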
# SETTINGS: p47phox/p22phox peptide binding, fluorescence polarization, 2 h; at 24.7 µM; hits give high values
Screen size: about 220,000 compounds; about 1,100 (0.5%) were called active. This is one part of a sample in which actives are shown more often than they occur.
ASSAY_METRIC: inhibition (%)
Give a bare numeral; the unit % is implied.

>  <MOLECULE>
CC(C)OCCCNc1ncnc2c1[nH]c1ccc(F)cc12

>  <inhibition (%)>
-10.6

$$$$
>  <MOLECULE>
CCNC(=O)CN(c1ccc(C)cc1)S(=O)(=O)c1ccc(SC)cc1

>  <inhibition (%)>
-7.61

$$$$
>  <MOLECULE>
COc1cc(OC)c(OC)cc1/C=N/Nc1ncnc2c1[nH]c1ccc(C)cc12

>  <inhibition (%)>
34.2

$$$$
>  <MOLECULE>
COc1ccccc1C1/C(=C(/O)c2ccc(C)cc2)C(=O)C(=O)N1Cc1ccco1 (stereo not drawn)

>  <inhibition (%)>
-0.55

$$$$
>  <MOLECULE>
Cc1cc(N2C(=O)C(=O)/C(=C(/O)c3ccc(Cl)cc3)C2c2cccc(Br)c2)no1 (stereo not drawn)

>  <inhibition (%)>
-12.5

$$$$
>  <MOLECULE>
Cc1ccc(O)c(NC(=S)NC(=O)COc2ccc(Br)cc2)c1

>  <inhibition (%)>
-10.4

$$$$
>  <MOLECULE>
Cc1ccc(C)c(-n2ccnc2SCC(N)=O)c1

>  <inhibition (%)>
-6.63

$$$$
>  <MOLECULE>
Cc1nnc(NC(=O)CSc2nccn2-c2cccc(C)c2C)s1

>  <inhibition (%)>
-2.14

$$$$
>  <MOLECULE>
Nc1nnnn1/N=C/c1cccs1

>  <inhibition (%)>
-3.56

$$$$
>  <MOLECULE>
CC(C)OCCCNc1nc2c(c(=O)n(Cc3ccccc3F)c(=O)n2C)n1C

>  <inhibition (%)>
-4.4

$$$$

Query: Tell me the measured inhibition of CC(C)N1CCC(N2CCN(Cc3cccnc3)CC2CCO)CC1 (stereo not drawn) , please.
Reply: -4.11
